# credit: paper PMC12660843

- TARGET SYSTEM: 3-pTza peptide (Biotin-AminocaproicAcid-A.G.A.G.3-pTza.A.G.A.G)
- ASSAY COMMENT: BLI; Octet RED96e; biotinylated peptides captured on streptavidin biosensors at 20 nM; Fab in solution, 20-200 nM; 1x HBS-T, 1% BSA
METRIC: Kd (nM)
Respond with the bare value in nM.

Req: Return reported Kd; argument: rSC44 Fab (Fab, V domains shown) VH: QSVKESGRGLVQPGGSLTLTCTASGFSIDSYGFSWVRQAPGKGLEHIGYLTAGGRAFYASWAKSRSTITRNTNENTVTLKMTSLTAADTATYFCAKLGSGNPVAIWGPGTLVTVSS VL: QVLTQTPSFTSAAVGGTVTINCQSSQSVWRNKNLAWYQQKPGQPPKRLIYAIATLDSGVPSRFSGSGSGTQFTLTISDVQCDDAATYYCVGHYGSENDAYYAFGGGTEVVVK
Resp: 0.668
